Each recorded value in this set is attributed to the supplement of paper PMC13380429.

Quick reference: drug sensitivity score of the listed items.
Test system: HepG2
experiment: drug sensitivity score (DSS) for viability; higher = more toxic; extreme values may be limits of the assay
details: 72 h

compound | drug sensitivity score
N#CCNC(=O)c1ccc(-c2ccnc(Nc3ccc(N4CCOCC4)cc3)n2)cc1 | 6.2
CC(C(=O)O)c1ccc(C(=O)c2cccs2)cc1 (centres undefined) | 1.1
COc1cc2ncnc(Nc3ccc(F)c(Cl)c3)c2cc1NC(=O)/C=C/CN1CCCCC1 | 3.8
Nc1nc(=O)c2sc(=O)n([C@@H]3O[C@H](CO)[C@@H](O)[C@H]3O)c2[nH]1 | 0
C[n+]1c2cc(N)ccc2cc2ccc(N)cc21 | 14.4
O=C(N/N=C/c1ccccc1O)c1ccccc1O | 7.5
CC(C)Cn1cnc2c(N)nc3ccccc3c21 | 0
CCCCCCCCCCCCCCCCCCCCCCCCCCCCO | 0
O=C(O)c1ccc(N2C(=O)/C(=C/c3ccc(-c4ccc([N+](=O)[O-])cc4)o3)C=C2c2ccccc2)cc1 | 0
